Cited source for all entries: the METLIN SMRT retention time set (Domingo-Almenara et al. 2019)

assayInfo: gradient 5% acetonitrile 3 min, to 50% in 2 min, to 85% in 15 min, held 3 min, 100 µL/min
measurementContext: column: Zorbax Extend-C18 2.1 x 50 mm; eluents: water / acetonitrile, 0.1% formic acid
measurementName: RP-LC retention time (s)

{"smilesString": "Cc1nc(Nc2ccc(Cl)cn2)sc1C(=O)N1CCN(C(C)C)CC1", "measurementName": "RP-LC retention time", "measValue": 612}
{"smilesString": "Cc1cccn2c(Nc3ccc4c(c3)OCCO4)c(-c3ccc(O)cc3)nc12", "measurementName": "RP-LC retention time", "measValue": 642}
{"smilesString": "O=C(Cn1cnc2ccccc21)OCc1cc(-c2ccc3c(c2)OCO3)on1", "measurementName": "RP-LC retention time", "measValue": 639}
{"smilesString": "COc1ccc(CNC(=O)c2cn(C)c3ncccc23)cc1", "measurementName": "RP-LC retention time", "measValue": 711}
{"smilesString": "Cc1ccc2ncn(C3CCN(C(=O)Nc4ccc(C)c(C)c4)CC3)c(=O)c2c1", "measurementName": "RP-LC retention time", "measValue": 799}

* * *

assayInfo: gradient 5% acetonitrile 3 min, to 50% in 2 min, to 85% in 15 min, held 3 min, 100 µL/min
measurementContext: column: Zorbax Extend-C18 2.1 x 50 mm; eluents: water / acetonitrile, 0.1% formic acid

{"molecule": "N#CCCSc1ccccc1NC(=O)c1ccc(Cl)s1", "RP-LC retention time (s)": 908}
{"molecule": "Cc1ccc2ncn(C3CCN(S(=O)(=O)c4ccc(C)c(C)c4)CC3)c(=O)c2c1", "RP-LC retention time (s)": 998}
{"molecule": "CCN1CCN(c2ncc3c(n2)CCN(Cc2ccc(OC)c(OC)c2OC)C3)CC1", "RP-LC retention time (s)": 547}
{"molecule": "Cc1ccc(NC(=O)Cn2cnc3nc(N4CCC(C(=O)NC5CC5)CC4)sc3c2=O)cc1C", "RP-LC retention time (s)": 693}
{"molecule": "CCOc1ccc(C(=O)N2CCC3(CC2)NC(=O)c2cc(F)ccc2N3CC)cc1", "RP-LC retention time (s)": 836}
{"molecule": "CC(C)S(=O)(=O)N1CC(Oc2ccccc2-c2nc(C3CC3)no2)C1", "RP-LC retention time (s)": 984}
{"molecule": "CCn1cc(-c2nc(C)c(C(=O)NCc3ccccc3)s2)c2cccnc21", "RP-LC retention time (s)": 784}
{"molecule": "CCc1ccc(S(=O)(=O)N2CCN(CCc3cn(CC)c4ncccc34)CC2)cc1", "RP-LC retention time (s)": 690}
{"molecule": "COc1ccc2c(c1)C1(CCN(C(=O)NCc3ccc(F)cc3)C1)C(=O)N2C (stereo not given)", "RP-LC retention time (s)": 755}
{"molecule": "COc1ccccc1C(CNC(=O)c1cc(=O)c2cc(C)c(C)cc2o1)N(C)C (stereo not given)", "RP-LC retention time (s)": 651}
{"molecule": "COc1ccc(-c2noc(-c3nn(-c4ccc(F)c(F)c4)ccc3=O)n2)cc1OC", "RP-LC retention time (s)": 835}
{"molecule": "COC(=O)c1ccc2c(=O)n(-c3ccc4c(c3)OCO4)c(N3CCN(c4ccccc4)CC3)nc2c1", "RP-LC retention time (s)": 1110}
{"molecule": "CCCc1noc(-c2cccnc2N2CCCN(Cc3cccc(F)c3)CC2)n1", "RP-LC retention time (s)": 722}
{"molecule": "O=C(NCC(F)(F)F)C1CCN(C(=O)c2c(F)cccc2Cl)CC1", "RP-LC retention time (s)": 686}
{"molecule": "O=C(Nc1ccccc1F)NC1CCN(C(=O)C2CC2)C1 (stereo not given)", "RP-LC retention time (s)": 673}
{"molecule": "Nc1cccc(-c2nc3ccccc3[nH]2)c1", "RP-LC retention time (s)": 532}
{"molecule": "COc1cc(NC(C)=O)c2ncccc2c1NC(C)=O", "RP-LC retention time (s)": 631}
{"molecule": "CCCC(NC(=O)C1CCCN(c2nc3c(s2)c(C)nn3-c2ccc(C)cc2)C1)c1cccs1 (stereo not given)", "RP-LC retention time (s)": 1300}
{"molecule": "CC(C)CNC(=O)N1c2ccccc2CC1c1nc(C2CC2)no1 (stereo not given)", "RP-LC retention time (s)": 925}
{"molecule": "O=C(CSc1ccc(F)cc1)N1CCC(COCc2ccccc2)CC1", "RP-LC retention time (s)": 1030}
